- assay system: Cannabinoid receptor 2 (Homo sapiens)
- Sequence (P34972 whole entry): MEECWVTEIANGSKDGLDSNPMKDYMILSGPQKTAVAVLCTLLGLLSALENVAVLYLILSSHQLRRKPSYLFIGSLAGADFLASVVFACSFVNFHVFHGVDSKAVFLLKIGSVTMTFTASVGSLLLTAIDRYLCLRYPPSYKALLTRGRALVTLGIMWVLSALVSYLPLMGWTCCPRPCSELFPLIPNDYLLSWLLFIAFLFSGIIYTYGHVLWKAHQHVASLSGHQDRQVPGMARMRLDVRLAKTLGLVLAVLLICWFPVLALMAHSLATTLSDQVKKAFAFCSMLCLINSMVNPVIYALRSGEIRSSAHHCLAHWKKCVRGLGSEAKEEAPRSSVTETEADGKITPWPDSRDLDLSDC
- test summary: Displacement of [3H]-CP55940 from recombinant human CB2 receptor by scatchard plot analysis
measured property: pKi
pKi is a log-scale quantity: -log10 of the concentration expressed in molar.

Some compounds with recorded pKi:
CC(C)(NC(=O)c1cc2c(n(CC3CCCCC3)c1=O)CCCCCC2)C(=O)NCCCO 9.00
CC(C)(NC(=O)c1cc2c(n(CC3CCCCC3)c1=O)CCCCCC2)C(=O)N1CCC(C(=O)O)CC1 6.42
CC(C)(NC(=O)c1cc2c(n(CC3CCCCC3)c1=O)CCCCCC2)C(=O)N1CCC(C(N)=O)CC1 8.52
CC(C)(NC(=O)c1cc2c(n(CC3CCCCC3)c1=O)CCCCCC2)C(=O)NNS(C)(=O)=O 8.14
CC(C)(NC(=O)c1cc2c(n(CC3CCCCC3)c1=O)CCCCCC2)C(=O)N1CCC(O)CC1 8.96
COC(=O)C(C)(C)NC(=O)c1cc2c(n(CC3CCCCC3)c1=O)CCCCCC2 9.52
CC(=O)NCCNC(=O)C(C)(C)NC(=O)c1cc2c(n(CC3CCCCC3)c1=O)CCCCCC2 8.60
CC(C)(NC(=O)c1cc2c(n(CC3CCCCC3)c1=O)CCCCCC2)C(=O)NCC(=O)O 5.55
CN(CCO)C(=O)C(C)(C)NC(=O)c1cc2c(n(CC3CCCCC3)c1=O)CCCCCC2 9.22
CC(C)(NC(=O)c1cc2c(n(CC3CCCCC3)c1=O)CCCCCC2)C(=O)NCCCCCO 8.92

Return reported pKi. Input compound: `CC(C)(NC(=O)c1cc2c(n(CC3CCCCC3)c1=O)CCCCCC2)C(=O)NCCOCCO` 9.22

Return pKi for the following compound: `CC(C)(NC(=O)c1cc2c(n(CC3CCCCC3)c1=O)CCCCCC2)C(=O)N1CCC(C(=O)NS(C)(=O)=O)CC1` 6.89

Identify measured pKi corresponding to `CC(C)(NC(=O)c1cc2c(n(CC3CCCCC3)c1=O)CCCCCC2)C(=O)NN` 8.55

State its pKi for this compound: `CN(C)CCNC(=O)C(C)(C)NC(=O)c1cc2c(n(CC3CCCCC3)c1=O)CCCCCC2` 7.09

----------
- System: Mus musculus
- test summary: Toxicity in ICR mouse assessed as CB1-mediated moving sluggishly at 0.1 to 1 mg/kg, iv after 15 mins
- Assay type: organism-based
- Design: dose 0.1-1 mg/kg, route intravenous
- conditions: in vivo, 0.25 h
measured property: Activity

Here is how some molecules turned out for Activity.
CN(CCO)C(=O)C(C)(C)NC(=O)c1cc2c(n(CC3CCCCC3)c1=O)CCCCCC2 Toxic
CC(C)(NC(=O)c1cc2c(n(CC3CCCCC3)c1=O)CCCCCC2)C(=O)NCC(N)=O Toxic
CC(C)(NC(=O)c1cc2c(n(CC3CCCCC3)c1=O)CCCCCC2)C(=O)N1CCC(C(N)=O)CC1 Toxic
CC(C)(NC(=O)c1cc2c(n(CC3CCCCC3)c1=O)CCCCCC2)C(=O)N1CCC(O)CC1 Toxic

Name the recorded Activity of the molecule listed here: `CC(C)(NC(=O)c1cc2c(n(CC3CCCCC3)c1=O)CCCCCC2)C(=O)NCCCO` Toxic

Specify Activity for `CC(C)(NC(=O)c1cc2c(n(CC3CCCCC3)c1=O)CCCCCC2)C(=O)NNS(C)(=O)=O` and stop. Non-toxic

Kindly indicate its recorded Activity. Item: `CC(C)(NC(=O)c1cc2c(n(CC3CCCCC3)c1=O)CCCCCC2)C(=O)NCCOCCO` Toxic

Dear colleague, please send me the reported Activity for `CC(C)(NC(=O)c1cc2c(n(CC3CCCCC3)c1=O)CCCCCC2)C(=O)N1CCC(NS(C)(=O)=O)CC1` when you can. Non-toxic

Identify measured Activity corresponding to `CC(C)(NC(=O)c1cc2c(n(CC3CCCCC3)c1=O)CCCCCC2)C(=O)NN` Toxic
